# assay-name: chemical genetic growth profiling, strain panel (AID 1159580);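 also: tested at 20 µM; growth read once vehicle control cultures reached saturation at 30 °C; 1 = growth at the plate median or of vehicle wells; lower values mean less growth of the strain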
# measurement-conditions: S. cerevisiae deletion strains, growth OD, locus YNR049C, strain mso1, stronger effect = lower value
The whole screen tested about 5,500 compounds, of which about 2,000 (36%) were called active. About 18% were inconclusive and are not listed. The list shows a part of the results.

compound | normalized growth
O=C(O)[C@H]1/C(=C/CO)O[C@@H]2CC(=O)N21 | 0.972
O=C1C=C(O)c2ccccc2C1=O | 0.958
O=C1c2ccccc2C(=O)c2ccccc21 | 0.995
CN1CCCCC1c1ccc(-c2cccnc2)nc1 (configuration not stated) | 0.986
O=C1c2cccc(O)c2C(=O)c2c(O)cccc21 | 0.942
NC(=NCCCCCCN=C(N)N=C(N)Nc1ccc(Cl)cc1)N=C(N)Nc1ccc(Cl)cc1 | 0.0617
CC(=O)OCC1=C(C(=O)O)N2C(=O)[C@@H](NC(=O)CSc3ccncc3)[C@H]2SC1 | 1.02
CC(C)C1CCC(C(=O)N[C@@H](Cc2ccccc2)C(=O)O)CC1 (some centres not stated) | 0.975
COC(=O)CC1C(C)(C(=O)c2ccoc2)CC2OCC34C(CC(=O)OC)C5(C)CC36OC3(C)OC1(C(OC(C)=O)C6(OC(C)=O)C5OC(=O)C(C)C)C24O3 (configuration not stated) | 0.973
Cc1cc(O)c2c(c1)C(=O)c1cccc(O)c1C2=O | 1.01
O=c1c(O)c(-c2ccccc2)oc2cccc(O)c12 | 0.89
CNC(C)(C)Cc1ccccc1 | 1.01

###

# assay-name: chemical genetic growth profiling, strain panel (AID 1159580);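 also: tested at 20 µM; growth read once vehicle control cultures reached saturation at 30 °C; 1 = growth at the plate median or of vehicle wells; lower values mean less growth of the strain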
# measurement-conditions: S. cerevisiae deletion strains, growth OD, locus YCL061C, strain MRC1, stronger effect = lower value
The campaign covered roughly 5,500 compounds. About 2,000 (36%) were called active. Another 18% or so got no clear call; they are omitted. Some of the results follow.

compound | normalized growth
NS(=O)(=O)c1cc2c(cc1Cl)NCNS2(=O)=O | 0.999 (inactive)
CC(=O)c1c(O)cc(O)cc1O | 1 (inactive)
O=C1C=CC(=O)c2ccccc21 | 0.0703 (active)
COc1cc(O)c2c(c1)C(=O)c1cc(C)cc(O)c1C2=O | 0.977 (inactive)
CC(C)CCCC(C)N (configuration not stated) | 1.01 (inactive)
O=C(NNC(=S)NC1CC2C=CC1C2)c1cccnc1 (configuration not stated) | 0.971 (inactive)
Cc1onc(-c2c(Cl)cccc2Cl)c1C(=O)N1CCN(c2ncnc3scc(-c4ccccc4)c23)CC1 | 0.994 (inactive)
O=C1NS(=O)(=O)c2ccccc21 | 1.02 (inactive)
COc1ccccc1C1CCN(c2ncnc3scc(-c4ccccc4)c23)CC1 | 1 (inactive)
CC(=O)OCC1=C(C(=O)O)N2C(=O)[C@@H](NC(=O)CSc3ccncc3)[C@H]2SC1 | 1.01 (inactive)
C/C(=C\CO)CC[C@H](C)CCC[C@H](C)CCCC(C)C | 1.11 [resistant] (active)
C=C(C)C1Cc2c(ccc3c(=O)c4c(oc23)COc2cc(OC)c(OC)cc2-4)O1 (configuration not stated) | 0.996 (inactive)

###

This section presents molecules with their documented normalized growth values.
# assay-name: chemical genetic growth profiling, strain panel (AID 1159580);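 also: tested at 20 µM; growth read once vehicle control cultures reached saturation at 30 °C; 1 = growth at the plate median or of vehicle wells; lower values mean less growth of the strain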
# measurement-conditions: S. cerevisiae deletion strains, growth OD, locus YGR229C, strain SMI1, stronger effect = lower value
In all, about 5,500 compounds went through this assay and about 2,000 (36%) were called active. Another 18% or so got no clear call; they are omitted. Some of the results follow.

molecule | normalized growth
CN1C(=O)CC[C@H]1c1cccnc1 | 1.01
O=C1CSC(c2cccnc2)N1c1ccc(Cl)cc1 (configuration not stated) | 0.984
COc1cc2cccc(OC)c(=O)c2c(OC)c1OC | 0.994
O[C@H]1[C@H](O)[C@@H](O)C2OC[C@H]1O2 | 0.975
CCCC(=O)Nc1ccc(OCC(O)CNC(C)C)c(C(C)=O)c1 (configuration not stated) | 1.03
CC(=O)Oc1c(C)c(C)c2c(c1C)CCC(C)(CCCC(C)CCCC(C)CCCC(C)C)O2 (configuration not stated) | 1.01
CC(C)(C)S(=O)(=O)c1cnc(N)nc1N | 1.01
